target: human CYP2C19 (Homo sapiens); test: biochemical; settings: CYP2C19 AC50 (half-maximal activity concentration)
Sequence (P33261 whole entry): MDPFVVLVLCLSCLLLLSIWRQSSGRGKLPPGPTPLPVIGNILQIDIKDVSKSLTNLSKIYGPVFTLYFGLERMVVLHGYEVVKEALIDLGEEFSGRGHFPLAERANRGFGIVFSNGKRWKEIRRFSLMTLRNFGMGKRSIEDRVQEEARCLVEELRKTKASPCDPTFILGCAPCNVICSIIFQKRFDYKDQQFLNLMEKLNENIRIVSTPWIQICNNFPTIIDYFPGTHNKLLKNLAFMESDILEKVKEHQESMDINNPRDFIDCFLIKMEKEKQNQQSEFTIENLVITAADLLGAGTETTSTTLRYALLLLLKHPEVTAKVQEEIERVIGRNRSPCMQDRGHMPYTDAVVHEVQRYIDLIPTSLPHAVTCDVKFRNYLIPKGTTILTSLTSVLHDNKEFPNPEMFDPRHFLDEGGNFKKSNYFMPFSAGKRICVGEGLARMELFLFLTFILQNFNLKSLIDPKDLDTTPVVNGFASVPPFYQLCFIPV
endpoint: log10 of AC50 (log10 of the value in µM)
For clarity, the numbers are log10 values of AC50 expressed in µM.

O=c1[nH]c2ccc([S+]([O-])CCN3CCC(Cc4ccc(F)cc4)CC3)cc2o1 (stereo not shown)
1.71
O=C(Oc1ccccc1)c1ccccc1C(=O)Oc1ccccc1 [Diphenyl phthalate]
1.15
Clc1ccc(C(c2ccccc2Cl)C(Cl)(Cl)Cl)cc1 (stereo not shown)
-0.46
ClC(Cl)=C(c1ccc(Cl)cc1)c1ccccc1Cl
0.84
CCCCCC(C=O)=Cc1ccccc1
1.48

Need log10 of AC50, item "CC(=O)[C@H]1CC[C@H]2[C@@H]3C=CC4=CC(=O)CC[C@@]4(C)[C@@H]3CC[C@]12C"
0.74

Same for CC1(C)C(C=C(Cl)Cl)C1C(=O)OCc1cccc(Oc2ccccc2)c1 (stereo not shown)
0.77

Same for "O=C(Cc1ccccc1)c1ccccc1"
1.11

Same for N#CCCC(Br)(C#N)CBr (stereo not shown)
1.06

Same for O=P(Oc1ccccc1)(Oc1ccccc1)Oc1ccccc1 [Triphenyl phosphate]
0.81

Same for O=C1OC(=O)c2c(Cl)c(Cl)c(Cl)c(Cl)c21 [Tetrachlorophthalic anhydride]
1.95

Same for "CC(C)(c1ccc(O)cc1)c1ccc(O)cc1"
1.30

Same for "COC(=O)N(OC)c1ccccc1COc1ccn(-c2ccc(Cl)cc2)n1"
-0.24

Same for "N#Cc1cc(I)c(O)c(I)c1"
1.92
